Test system: murine splenocyte
Experiment: murine splenocyte assay for immunosuppressive activity
Type: cell-based
Conditions: mouse splenocyte assay, methods of Example 2.5; read-out: Splenocyte IC50
measuredMetric: pIC50
To interpret pIC50, take it as minus log10 of a concentration measured in moles per litre.

Please supply the value of reported pIC50 for the item COC1CC(CC(C)C2CC(=O)C(C)C=C(C)C(O)C(OC)C(=O)C(C)CC(C)C=CC=CC=C(C)C(OCc3ccccc3)CC3CCC(C)C(O)(O3)C(=O)C(=O)N3CCCCC3C(=O)O2)CCC1O (single isomer, unassigned) [28-epi-7S-benzyloxy]
7.03

###

Molecular target: transcriptional switch components containing FKBP and 2098L mutant FRB domains (Homo sapiens, UniProt P42345+P62942)
Construct: transcriptional switchcomponents containing FKBP and 2098L mutant FRB domains, respectively; fused on or other part: The two switch components are separate chimeric proteins; Neither is given for this cell line
Sequence (P62942 2-108 limits assumed, stated change not applied, other chains not shown): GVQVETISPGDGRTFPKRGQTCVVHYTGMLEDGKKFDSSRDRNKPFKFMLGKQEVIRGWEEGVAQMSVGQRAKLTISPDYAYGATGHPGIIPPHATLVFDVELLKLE
Assay: transcription assay in engineered HD1080 cells expressing SEAP (txn 2098L)
Format: cell-based
Conditions: cellular transcription assay, methods of Example 2.5; read-out: TXN 2098L EC50
measuredMetric: EC50 (nM)
API: value field is a number in nM; no unit string.

Example cases with answers are listed next.
COC1CC(CC(C)C2CC(=O)C(C)C=C(C)C(O)C(OC)C(=O)C(C)CC(C)C=CC=CC=C(C)C(N(C)C(=O)OCC(C)C)CC3CCC(C)C(O)(O3)C(=O)C(=O)N3CCCCC3C(=O)O2)CCC1O (single isomer, unassigned) [28-epi-7R-N-Me-isobutylcarbamate]
15
CCCCS(=O)(=O)N[C@H]1C[C@@H]2CC[C@@H](C)[C@@](O)(O2)C(=O)C(=O)N2CCCC[C@H]2C(=O)O[C@H]([C@H](C)C[C@@H]2CC[C@@H](O)[C@H](OC)C2)CC(=O)[C@H](C)/C=C(\C)[C@H](O)[C@@H](OC)C(=O)[C@H](C)C[C@H](C)/C=C/C=C/C=C/1C [28-epi-7S-butanesulfonamide]
11

Next compound, EC50 to be filled in.
Give a short answer stating reported EC50 for CO[C@@H]1C[C@H](C[C@@H](C)[C@@H]2CC(=O)[C@H](C)/C=C(\C)[C@H](O)[C@@H](OC)C(=O)[C@H](C)C[C@H](C)/C=C/C=C/C=C(\C)[C@@H](N(C)C(=O)OCc3ccccc3)C[C@@H]3CC[C@@H](C)[C@@](O)(O3)C(=O)C(=O)N3CCCC[C@H]3C(=O)O2)CC[C@H]1O [28-epi-7S-N-Me-benzylcarbamate] .
9

###

Molecular target: FKBP (Homo sapiens, UniProt P62942)
Sequence (P62942 whole entry): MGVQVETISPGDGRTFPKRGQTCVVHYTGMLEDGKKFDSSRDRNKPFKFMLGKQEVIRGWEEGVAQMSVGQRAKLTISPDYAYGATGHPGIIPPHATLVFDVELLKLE
Assay: FKBP competitive binding assay based on fluorescence polarization (FP)
Details: FKBP IC50 (nM), competitive FP binding, methods of Example 2.5
measuredMetric: IC50 (nM)
State the answer as a number, implicitly in nM.

Sample answers from the record:
CCN([C@H]1C[C@@H]2CC[C@@H](C)[C@@](O)(O2)C(=O)C(=O)N2CCCC[C@H]2C(=O)O[C@H]([C@H](C)C[C@@H]2CC[C@@H](O)[C@H](OC)C2)CC(=O)[C@H](C)/C=C(\C)[C@H](O)[C@@H](OC)C(=O)[C@H](C)C[C@H](C)/C=C/C=C/C=C/1C)S(C)(=O)=O [28-epi-7S-N-Et-methanesulfonamide]
31
CO[C@@H]1C[C@H](C[C@@H](C)[C@@H]2CC(=O)[C@H](C)/C=C(\C)[C@H](O)[C@@H](OC)C(=O)[C@H](C)C[C@H](C)/C=C/C=C/C=C(\C)[C@@H](Oc3ccccc3C)C[C@@H]3CC[C@@H](C)[C@@](O)(O3)C(=O)C(=O)N3CCCC[C@H]3C(=O)O2)CC[C@H]1O [28-epi-7S-2′-methylphenyloxy]
17

--- query ---
Report IC50, nothing else, for this molecule: CCOC(=O)N[C@H]1C[C@@H]2CC[C@@H](C)[C@@](O)(O2)C(=O)C(=O)N2CCCC[C@H]2C(=O)O[C@H]([C@H](C)C[C@@H]2CC[C@@H](O)[C@H](OC)C2)CC(=O)[C@H](C)/C=C(\C)[C@H](O)[C@@H](OC)C(=O)[C@H](C)C[C@H](C)/C=C/C=C/C=C/1C [28-epi-7S-ethylcarbamate]
13
